# Target System: Pumby8_KD_4 (synthetic (from Homo sapiens Pumilio unit 6))
# Test Description: FP
# Test Parameters: 25 mM Tris-HCl pH 7.5, 0.5 mM EDTA, 50 mM KCl, 0.1 mg/mL BSA; active-fraction corrected
Property Measured: Kd (nM)
Please respond with the number in nM and leave the unit unwritten.

Reported Kd (Pumby8_KD_4 (synthetic (from Homo sapiens Pumilio unit 6))) for entry CCAGAAUCAUGUCAGUUCG [KD_2/KD_4 cognate] is 0.439

====

# Target System: Pumby8_KD_3 (synthetic (from Homo sapiens Pumilio unit 6))
# Test Description: FP
# Test Parameters: 25 mM Tris-HCl pH 7.5, 0.5 mM EDTA, 50 mM KCl, 0.1 mg/mL BSA; active-fraction corrected
Property Measured: pKd
Interpret pKd as the negative base-10 log of the concentration measured in mol/L.

So for CCAGAAUUGUAGAUAUUCG [KD_3 cognate] , the logged pKd turned out to be 8.87
